# Test system: HT29 colon
# assay.summary: NCI tumour cell line growth inhibition, 48 h
metric.name: GI50

Completed entries (count: 3):
compound	GI50
COc1ccc(-c2nc3c(c(=O)n2C(C)=O)C(c2ccc(Cl)cc2)c2sc4c(Cl)cccc4c2O3)cc1 (centres undefined)	325 nM
C[C@@H]1C/C=C\C(=O)O[C@H](/C=C/C#C/C=C/C(C)(C)[C@@H](O)c2cccc(O)c2Br)[C@@H](C)/C=C/[C@H](C)C[C@H](OC(N)=O)C1	29 nM
O=C(Nc1ccc(Cl)cc1)Nc1ccccc1CNc1nc(Nc2ccc(OCCN3CCCC3)cc2)ncc1Cl	1190 nM

Query: # get_value(readout='GI50', item= c1ccc(CC(NCCNC(Cc2ccccc2)c2ccccc2)c2ccccc2)cc1 (centres undefined) )
Reply: 227 nM

---

# System: U251 CNS
# assay.summary: NCI tumour cell line growth inhibition, 48 h
metric.name: TGI (µM)
Respond numerically; units are µM and should not be typed.

structure.as.smiles	TGI / µM
COc1ccc(/C=C/C(=O)C(C)(C)Br)cc1	28.6

Now for another entry.
Query: So what does the record say about TGI for C[C@@H]1C/C=C\C(=O)O[C@H](/C=C/C#C/C=C/C(C)(C)[C@@H](O)c2cccc(O)c2Br)[C@@H](C)/C=C/[C@H](C)C[C@H](OC(N)=O)C1 ?
Reply: 18.3

---

# TGI per entry
# Tested on: OVCAR-5 ovarian
# assay.summary: NCI tumour cell line growth inhibition, 48 h
Give the value in µM but do not write µM after it.

compound	metric.name	data.value
CCCNC(=O)CCC(C)[C@H]1CCC2C3C(C[C@H](OC(C)=O)[C@@]21C)[C@@]1(C)CCC2(C[C@H]1C[C@H]3OC(C)=O)OOC1(CCCCC1)OO2 (some centres undefined)	TGI	25.8

Now for another entry.
Query: # input compound: CC1=C2C(=O)c3ccccc3C(=O)[C@H]2C[C@@H](N2CCCCCC2=O)O1 ; wanted: its TGI
Reply: 30.4

---

# Tested on: NCI-H226 lung
# assay.summary: NCI tumour cell line growth inhibition, 48 h
metric.name: TGI

1. O=C1CC2(CCNCC2)C(=O)N1N1CCOCC1 > 100 µM
2. NC(=S)N/N=C\CC(O)(C(F)(F)F)C(F)(F)F > 10 µM
3. CO[P@]1(=O)O[C@@H](c2ccccc2)[C@H](O)[C@@]1(O)c1ccccc1 > 100 µM
4. COC(=O)/C=C/c1ccc2c(c1)CC1(Cc3ccccc3C1)C2 > 100 µM

Query: Please give the measured TGI for this compound: CC(C)(C)c1cc(CCC(=O)Nc2ccc(Cl)cc2Cl)nc(N)n1
Reply: > 100 µM

Query: Same again, this time with COc1ccc(-c2c3ccccc3c(-c3ccc(OCCCCCBr)cc3)c3ccccc23)cc1
Reply: > 100 µM

---

# Test system: IGROV1 ovarian
# assay.summary: NCI tumour cell line growth inhibition, 48 h; in the data active = GI50 below about 0.43 µM; inactive = the rest
Would you mind answering with one of these outcomes? true (1) = active, false (0) = inactive

compound	class.label
CN(C)C(=O)SC1=C(c2c(Cl)cccc2Cl)C(=O)c2ccccc21	false (0)
CN(C)CCCC1(c2ccc(F)cc2)OCc2cc(-c3cncc4ccccc34)ccc21 (configuration not stated)	false (0)
COC(=O)[C@H](Cc1ccccc1)NC(=O)c1csc([C@@H](C[C@H](C(C)C)N(C)C(=O)[C@@H](NC(=O)[C@H]2CCCN2C)C2CC2)OC(C)=O)n1	true (1)
COc1ccccc1/C=C\C(=O)c1ccccc1	false (0)
C/C(=N\n1c(N)c(C#N)c(-c2ccc(Cl)cc2)c(C#N)c1=O)c1ccncc1	false (0)
O=C(Nc1ccc(Cl)cc1)Nc1ccccc1CNc1nc(Nc2ccc(OCCN3CCCC3)cc2)ncc1Cl	false (0)

Could you now consider this next compound?
Query: What classification did O=c1oc2ccc(F)cc2c(=O)n1-c1ccc(Br)cc1F end up with in this test?
Reply: false (0)
